Collected DC50 values appear next to each entry.
tested_system: SMARCA2 (Homo sapiens)
Sequence (P51531 whole entry): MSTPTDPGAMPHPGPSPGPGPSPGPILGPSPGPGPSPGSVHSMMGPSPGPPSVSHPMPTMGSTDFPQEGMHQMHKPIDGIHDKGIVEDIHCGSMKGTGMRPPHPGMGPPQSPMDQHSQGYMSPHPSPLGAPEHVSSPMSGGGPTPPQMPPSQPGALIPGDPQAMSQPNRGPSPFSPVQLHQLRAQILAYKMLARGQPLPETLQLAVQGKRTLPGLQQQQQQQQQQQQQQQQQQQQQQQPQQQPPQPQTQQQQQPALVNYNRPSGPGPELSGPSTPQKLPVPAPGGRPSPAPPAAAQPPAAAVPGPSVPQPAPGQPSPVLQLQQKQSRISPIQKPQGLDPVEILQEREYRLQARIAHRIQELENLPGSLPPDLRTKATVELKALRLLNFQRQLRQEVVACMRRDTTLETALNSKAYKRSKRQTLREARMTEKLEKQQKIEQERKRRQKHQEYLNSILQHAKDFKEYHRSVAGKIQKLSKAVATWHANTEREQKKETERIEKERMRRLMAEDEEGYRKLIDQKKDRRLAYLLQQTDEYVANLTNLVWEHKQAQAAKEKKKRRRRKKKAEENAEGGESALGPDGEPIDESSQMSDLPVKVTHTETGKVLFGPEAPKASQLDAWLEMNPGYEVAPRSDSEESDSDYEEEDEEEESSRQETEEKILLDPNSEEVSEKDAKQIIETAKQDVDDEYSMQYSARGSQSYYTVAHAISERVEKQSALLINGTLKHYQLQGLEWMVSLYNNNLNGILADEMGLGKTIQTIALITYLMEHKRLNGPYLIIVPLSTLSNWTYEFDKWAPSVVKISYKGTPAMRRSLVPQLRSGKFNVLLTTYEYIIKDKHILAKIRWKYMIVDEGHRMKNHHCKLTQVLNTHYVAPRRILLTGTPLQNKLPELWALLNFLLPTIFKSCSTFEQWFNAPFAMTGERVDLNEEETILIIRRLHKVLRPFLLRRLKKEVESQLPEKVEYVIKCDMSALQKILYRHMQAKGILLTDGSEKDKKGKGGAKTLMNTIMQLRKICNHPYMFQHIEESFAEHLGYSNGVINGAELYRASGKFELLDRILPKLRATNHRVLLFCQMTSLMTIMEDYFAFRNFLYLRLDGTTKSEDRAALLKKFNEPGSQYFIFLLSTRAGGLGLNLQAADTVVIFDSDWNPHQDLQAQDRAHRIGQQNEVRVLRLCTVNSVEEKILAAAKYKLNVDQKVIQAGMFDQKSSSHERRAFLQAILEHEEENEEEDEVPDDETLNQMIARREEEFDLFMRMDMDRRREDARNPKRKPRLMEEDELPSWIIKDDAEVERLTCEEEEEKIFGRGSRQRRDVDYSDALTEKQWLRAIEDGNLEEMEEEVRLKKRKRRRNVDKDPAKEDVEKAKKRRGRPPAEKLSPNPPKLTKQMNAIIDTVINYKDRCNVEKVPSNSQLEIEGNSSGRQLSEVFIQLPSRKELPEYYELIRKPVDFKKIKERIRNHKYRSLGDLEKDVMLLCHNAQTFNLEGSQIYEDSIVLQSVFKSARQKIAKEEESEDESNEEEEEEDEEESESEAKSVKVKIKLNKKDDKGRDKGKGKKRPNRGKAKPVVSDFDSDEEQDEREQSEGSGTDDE
assay_notes: MSD SMARCA2 degradation in A549 cell line
Assay type: cell-based
condition_label: A549 cells, 24 h, read-out: SMARCA2 MSD A549 degradation 24 h: Average external-Abs DC50

Cc1ncsc1-c1ccc(CNC(=O)[C@@H]2C[C@@H](O)CN2C(=O)[C@@H](NC(=O)CCCN2CCCC(n3cc(-c4cc(-c5ccccc5O)nnc4N)cn3)C2)C(C)(C)C)cc1 (stereo partly shown) : > 1000 nM
Cc1ncsc1-c1ccc(CNC(=O)[C@@H]2C[C@@H](O)CN2C(=O)[C@@H](NC(=O)[C@H]2CC[C@H](c3nccc(N4C5CCC4CN(c4cc(-c6ccccc6O)nnc4N)C5)n3)CC2)C(C)(C)C)cc1 : 100 to 500 nM
Cn1c(=O)n(C2CCC(=O)NC2=O)c2cccc(CN3CCC(OC4CCN(Cc5ccc(C#Cc6cc(NC(=O)Nc7cc(F)ncc7CO)ccn6)cc5)CC4)CC3)c21 (stereo not shown) : > 1000 nM
COc1ccccc1-c1cc(N2CC3CCC(C2)N3c2ncc([C@H]3CC[C@@H](CC(=O)N[C@H](C(=O)N4C[C@H](O)C[C@H]4C(=O)NCc4ccc(-c5scnc5C)cc4)C(C)(C)C)CC3)cn2)c(N)nn1 : 100 to 500 nM

Lab note: next compound to report on.
Recall the recorded DC50 for "Cc1ncsc1-c1ccc(CNC(=O)[C@@H]2C[C@@H](O)CN2C(=O)[C@@H](NC(=O)[C@H]2CC[C@H](c3cnc(N4C5CCC4CN(c4cc(-c6ccccc6O)nnc4N)C5)nc3)CC2)C(C)(C)C)c(OC(F)(F)F)c1" with SMARCA2 (Homo sapiens) and state it.
< 100 nM
